- study.target: humanen NK-1-Rezeptoren (Homo sapiens)
- Sequence (P25103 whole entry): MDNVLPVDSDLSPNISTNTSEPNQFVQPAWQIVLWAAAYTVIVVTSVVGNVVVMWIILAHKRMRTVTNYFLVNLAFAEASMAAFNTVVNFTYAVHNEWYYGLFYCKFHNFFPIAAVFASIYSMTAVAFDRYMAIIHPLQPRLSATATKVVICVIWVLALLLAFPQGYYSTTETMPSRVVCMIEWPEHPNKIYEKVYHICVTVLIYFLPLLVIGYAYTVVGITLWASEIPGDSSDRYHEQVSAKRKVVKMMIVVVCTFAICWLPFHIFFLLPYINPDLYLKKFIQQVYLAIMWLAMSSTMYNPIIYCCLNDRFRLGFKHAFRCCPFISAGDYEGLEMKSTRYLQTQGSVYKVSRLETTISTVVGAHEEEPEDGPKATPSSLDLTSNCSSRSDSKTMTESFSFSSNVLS
property.name: Ki (nM)
Please give a number only; it is taken to be in nM.

[ask] What value of Ki has been reported for the following compound? `COc1ccccc1CNCCNC(=O)N1CCN(C(=O)c2cc(C(F)(F)F)cc(C(F)(F)F)c2)[C@H](Cc2c[nH]c3ccccc23)C1`
[reply] 2.1

----------
- study.target: humanen NK-2-Rezeptoren (Homo sapiens, UniProt P21452)
- Sequence (P21452 1-398): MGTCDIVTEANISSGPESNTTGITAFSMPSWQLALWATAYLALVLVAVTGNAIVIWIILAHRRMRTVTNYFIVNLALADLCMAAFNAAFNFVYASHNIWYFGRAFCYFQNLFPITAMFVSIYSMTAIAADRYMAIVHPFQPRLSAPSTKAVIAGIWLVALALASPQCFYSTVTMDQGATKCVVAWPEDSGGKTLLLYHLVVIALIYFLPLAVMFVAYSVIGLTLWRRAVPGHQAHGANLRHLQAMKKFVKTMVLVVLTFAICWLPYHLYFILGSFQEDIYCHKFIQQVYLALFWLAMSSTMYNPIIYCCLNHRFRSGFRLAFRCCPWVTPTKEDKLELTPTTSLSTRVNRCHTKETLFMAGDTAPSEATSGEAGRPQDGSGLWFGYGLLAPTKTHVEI
property.name: Ki (µM)
// units = µM; emit number, no label

[ask] Fill in: Ki of COc1ccccc1CNCCNC(=O)N1CCN(C(=O)c2cc(C(F)(F)F)cc(C(F)(F)F)c2)[C@H](Cc2c[nH]c3ccccc23)C1 [Beispiel 1] is ___
[reply] 0.06

Sourced from patent EP0899270B1
